Assay: NCI Yeast Anticancer Drug Screen. Data for the sgs1 mgt1 strain (AID 161);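 further: 0% = growth of cultures given vehicle only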
Settings: S. cerevisiae sgs1 mgt1 strain, at 50.0 µM (retest, dose inferred, filed as 5.0)
Compounds without any hit were thinned out: in the full panel of roughly 79,000, 15% have a hit. Calls of active or inactive are those of the source. No stated cut-off is given here; in the data, active means growth inhibition above about 70%; inactive means the rest.
Your response should consist of one outcome taken from Yes (active), No (inactive)

Examples from the recorded data:
1. CCOC(=O)/C(=C\n1c(=O)sc2ccccc21)C(=O)c1ccccc1: No
2. CCC1CN2CCc3cc(OC)c(OC)cc3C2CC1CC1c2cc(OC)c(OC)cc2CCN1C(=O)C(Cc1c[nH]c2ccccc12)NC(=O)OC(C)(C)C (stereo not given): No
3. CC1=CC(c2c(O)cc(O)c(C(=O)CCc3ccccc3)c2O)C(C(C)C)CC1 (stereo not given): Yes
4. OCC1(O)OCC(O)C(O)C1O (stereo not given): No

I'd appreciate the recorded outcome for CN(C)CCC1(C2=CCCC2)CC/C(=C\c2ccc(Cl)cc2)C1=O (stereo not given) from this test.
Yes

###

Assay: NCI Yeast Anticancer Drug Screen. Data for the mlh1 rad18 strain (AID 175)
Details: S. cerevisiae mlh1 rad18 strain growth inhibition; at 50.0 µM; hits give high values
About 79,000 compounds went through this panel and 15% of them were active in at least one assay; those are over-represented in the sample as a whole. The source made the active and inactive calls. Cut-off read from the data, not from the text of the source: active = growth inhibition above about 70%; inactive = the rest.
Here, each record is paired with measured growth inhibition data.

Sample `C/C(=N\NC(=S)N1CCC(C)CC1)c1ncccn1` — what was its growth inhibition?
98.9% (active)

Let us now turn to Cc1[nH]c2ccccc2c1C(C)CC(O)c1ccccc1 (stereo unspecified)
95.2% (active)

Let us now turn to `Cc1cc([N+](=O)[O-])c2nnnn2c1`
34% (inactive)

Let us now turn to `CC1=C(C(=O)Nc2ccccc2)C(c2cccc3ccccc23)C(C(=O)Nc2ccccc2)=C(C)N1`
58.7% (inactive)

###

Assay: NCI Yeast Anticancer Drug Screen. Data for the cln2 rad14 strain (AID 165);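 further: 0% = growth equal to vehicle treated cultures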
Conditions: S. cerevisiae cln2 rad14 strain, at 50.0 µM, hits give high values
This is part of a sample that, as a whole, favours compounds with a hit. Of some 79,000 tested, about 15% had one in any assay.
Please map values of growth inhibition to classes as shown: c1 (below 60%), c2 (60% to below 90%), c3 (90% or more)

Which category does the recorded growth inhibition put `Clc1cc[c]([Sn]([O][Sn]([c]2ccc(Cl)cc2)([c]2ccc(Cl)cc2)[c]2ccc(Cl)cc2)([c]2ccc(Cl)cc2)[c]2ccc(Cl)cc2)cc1` in?
c2

###

Test: NCI Yeast Anticancer Drug Screen. Data for the mec2-1 strain (AID 157)
Conditions: S. cerevisiae mec2-1 strain, at 5.0 µM (retest, dose inferred, filed as 0.5), hits give high values
About 79,000 compounds went through this panel and 15% of them were active in at least one assay; those are over-represented in the sample as a whole.
experimental.endpoint: growth inhibition (%)
Only the number, expressed in %, is required.

Observe how each entry below is paired with its result.
1. COc1nc2c(ccn2C2OC(COC(C)=O)C(OC(C)=O)C(OC(C)=O)C2OC(C)=O)c(=O)n1C (stereo not drawn): 1
2. N#C/C(=C/c1ccc([N+](=O)[O-])o1)c1ccccc1: -19
3. COC(=O)C1(C)CCc2c(ccc3cccc(OC)c23)C1=O (stereo not drawn): 0
4. NNC(=O)c1ccccc1SSc1ccccc1C(=O)NN: 81
5. O=[N+]([O-])c1ccc2nc(Nc3ccccc3)c(Nc3ccccc3)nc2c1: 1
6. Nc1ccccc1O: 17
7. COc1cc[c]([Sn]([c]2ccc(OC)cc2)([c]2ccc(OC)cc2)[c]2ccc(OC)cc2)cc1: 6
8. Cc1ccc(NC(Nc2ccc(C)cc2C)=C(/C=C(\Cl)[N+](=O)[O-])[N+](=O)[O-])c(C)c1: 99

Sample `Cc1ccccc1NCc1ccccc1Cl` — what was its growth inhibition?
-55

Let us now turn to COc1ccc(C(=O)C2OC2c2ccccc2)cc1 (stereo not drawn)
-6

Let us now turn to `Cn1c(Sc2ccc(-c3cccnc3)n2C)ccc1-c1cccnc1`
-12

Let us now turn to `CC(=O)NS(=O)(=O)c1ccc(N=Cc2cc(Cl)cc(Cl)c2O)cc1`
19

Let us now turn to `Cc1cc(N(CCC#N)CCC#N)ccc1/C(Sc1ccccc1)=C(\NC(=O)/C=C/c1ccccc1)C(=O)Sc1ccccc1`
21

Let us now turn to C=C1CCCCC1C(C(=O)O)(c1ccccc1)c1ccccc1 (stereo not drawn)
71

Let us now turn to `CCOC(=O)/C(C#N)=C/c1coc2cc(C)cc(C)c2c1=O`
2

Let us now turn to `CS/C(=N\C(=S)Nc1ccccc1)Nc1ccccc1`
25
